The entries below are paired with their reported cAMP EC50.
target: human MC4R receptor (human, UniProt P32245 1-332)
Sequence (P32245 whole entry): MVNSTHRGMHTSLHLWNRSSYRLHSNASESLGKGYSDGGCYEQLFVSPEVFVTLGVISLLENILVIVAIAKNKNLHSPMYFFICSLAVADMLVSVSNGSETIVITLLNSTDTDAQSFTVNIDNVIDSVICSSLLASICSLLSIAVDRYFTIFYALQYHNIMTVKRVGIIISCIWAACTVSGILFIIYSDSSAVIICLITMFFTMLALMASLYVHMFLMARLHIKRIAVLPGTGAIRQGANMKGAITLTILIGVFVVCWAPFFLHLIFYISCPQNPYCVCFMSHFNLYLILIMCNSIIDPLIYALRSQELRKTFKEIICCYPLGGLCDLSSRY
assay_info: cell-based or functional assay
Positions of bridges follow the written chain, without caps; N, C: chain ends. Non-standard residues stand in square brackets, D forms with d. dPhe(4-Br) = N[C@H](Cc1ccc(Br)cc1)C(=O)O; d(hPhe) = N[C@H](CCc1ccccc1)C(=O)O; Nle = CCCC[C@H](N)C(=O)O
State the value, then name its unit.

These recorded examples may help you get a feel for the data.
binder="Ac-RC[dA]R[d(hPhe)]R[dW]C-NH2 (disulfide 2-8; SMILES CC(=O)N[C@@H](CCCNC(=N)N)C(=O)N[C@H]1CSSC[C@@H](C(N)=O)NC(=O)[C@@H](Cc2c[nH]c3ccccc23)NC(=O)[C@H](CCCNC(=N)N)NC(=O)[C@@H](CCc2ccccc2)NC(=O)[C@H](CCCNC(=N)N)NC(=O)[C@@H](C)NC1=O) [CTX-1239]" recorded_result="249 nM"
binder="Ac-RC[dA]R[dF][dR]WC-NH2 (disulfide 2-8; SMILES CC(=O)N[C@@H](CCCNC(=N)N)C(=O)N[C@H]1CSSC[C@@H](C(N)=O)NC(=O)[C@H](Cc2c[nH]c3ccccc23)NC(=O)[C@@H](CCCNC(=N)N)NC(=O)[C@@H](Cc2ccccc2)NC(=O)[C@H](CCCNC(=N)N)NC(=O)[C@@H](C)NC1=O) [CTX-1282]" recorded_result="1420 nM"

The binder listed as Ac-R[Nle]CR[dPhe(4-Br)]R[dW]C-NH2 (disulfide 3-8; SMILES CCCC[C@H](NC(=O)[C@H](CCCNC(=N)N)NC(C)=O)C(=O)N[C@H]1CSSC[C@@H](C(N)=O)NC(=O)[C@@H](Cc2c[nH]c3ccccc23)NC(=O)[C@H](CCCNC(=N)N)NC(=O)[C@@H](Cc2ccc(Br)cc2)NC(=O)[C@H](CCCNC(=N)N)NC1=O) [CTX-1613] shows cAMP EC50 equal to 1.9 nM
